The values you see were collected from a melting point compilation (Tetko et al.; mined from patent text by program, amines drawn as free bases though some values may be those of a salt).

Catalogue of melting point values

// worked examples, melting point included
# molecule, test_value
data = [
    ("CCOc1ccc(-c2nc(-c3cc(C(=O)OC)c4oc(C)cc4c3)cs2)cc1OCC", "144 to 145 °C"),
    ("Cc1cc(C)c(Nc2nc(C)ccc2S(=O)(=O)c2ccc(OCCCO)cc2)c(C)c1", "152 to 153 °C"),
    ("Cc1cccc2c1N(CC(=O)N1CC3CCC(CC3)C1)C(=O)C(NC(=O)c1cc3ccccc3[nH]1)N=C2C1CCCCC1 (racemic)", "206 to 212 °C"),
    ("CN(C(=O)OC[C@@]1(C)Cn2cc([N+](=O)[O-])nc2O1)c1ccc(OC(F)(F)F)cc1", "144 to 145 °C"),
    ("CCCCNC(=O)[C@@H](C[C@H](O)[C@H](CC1CCCCC1)NC(=O)[C@H](Cc1cscn1)NC(=O)[C@@H](CC(=O)N1CCOCC1)Cc1ccccc1)C(C)C", "161 to 163 °C"),
    ("Cc1cccc(C(=C2CN(C(c3ccccc3)c3ccccc3)C2)S(C)(=O)=O)c1", "180 °C"),
    ("Cc1cn(-c2cc(NC(=O)c3ccc(C)c(Nc4nccc(-c5cccnc5)n4)c3)cc(C(F)(F)F)c2)cn1", "235 to 236 °C"),
    ("CC(C)n1c2cc(C(F)(F)F)ccc2c2oc(C(=O)Cl)cc21", "128 to 129 °C"),
    ("CN(Cc1ccccc1)c1ccccc1C(=O)O", "86 to 88 °C"),
    ("COc1ccc(C2(c3cccc(CCc4ccccc4)n3)OCCCO2)cc1OC", "86 to 87 °C"),
]

// `O=C(Nc1ccc(C(=O)Nc2nnc(-c3cc(Cl)cc(Cl)c3O)s2)cc1)c1ccccc1` : melting point value = 301 °C

====

Catalogue of melting point values

# compound, melting point
data = [
    ("COCC(c1ccccc1)N(C)Cc1c(-c2ccc(NC(=O)NOC)cc2)sc2c1c(=O)n(-c1ccccc1)c(=O)n2Cc1c(F)cccc1F (stereo not given)", "169 to 172 °C"),
    ("FC(F)(F)c1ccc(-c2cc(C(F)(F)F)c(Br)nn2)cc1", "123 to 125 °C"),
    ("O=C1CCCCC1c1ccncc1 (stereo not given)", "99 to 101 °C"),
    ("COC(=O)c1nc(C2CC2)nc(N)c1Cl", "147 to 148 °C"),
    ("C(=C\\c1nc(COc2ccccc2CCCn2cncn2)co1)/c1ccccc1", "72 to 73 °C"),
    ("O=C(Oc1nc(Cl)c(Cl)cc1Cl)C(Cl)(Cl)Cl", "58 to 60 °C"),
]

// CSC(CC(CCCl)C(=O)c1ccccc1)C(N)C(N)=O (stereo not given) : melting point value = 174 °C

====

assay_metric: melting point

# compound, melting point
data = [
    ("CC(C(=S)c1ccnc(NC=O)c1)S(C)=O (stereo not given)", "123 to 125 °C"),
    ("NNc1c(S(=O)(=O)C(F)(F)F)cnn1-c1c(Cl)cc(C(F)(F)F)cc1Cl", "154 °C"),
]

// CCOC(=O)c1ccc(C#CC(O)c2cc(C(C)(C)C)cc(C(C)(C)C)c2OCOC)cc1 (stereo not given) : melting point value = 89 to 91 °C
